assay: serotonin-gated TRPC4 signal block – cell-based, second counter screen, HEK293 TRPC4/5HT1a, Fluo-4, counter-screen for TRPC4 inhibitor project, confirmation (AID 434978); conditions: Fluo-4 calcium flux, at 10 µM, serotonin added to trigger calcium flux
The source made the active and inactive calls.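 The calls were made as follows: active = primary screen active whose calcium signal fell more than 3 SD beyond the full-serotonin control mean in both duplicate plates; inactive = the rest.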
Possible outcomes: active, inactive

>>> group("NS(=O)(=O)c1ccc(CCNCc2cc(Br)ccc2OCc2ccccc2)cc1")
"inactive"
>>> group("O=C(Cc1cn(Cc2cccc(Cl)c2)c2ccccc12)N1CCCC1")
"inactive"
>>> group("COc1ccc(C(c2nnnn2C2CCCC2)N2CCN(c3ccccc3)CC2)cc1 (configuration not stated)")
"inactive"
>>> group("CC(C1CC2CCC1C2)n1c(-c2cccs2)n[nH]c1=S (configuration not stated)")
"active"
>>> group("CCN1CCN(c2nc(N)c([N+](=O)[O-])c(Nc3ccc(C)cc3)n2)CC1")
"inactive"
>>> group("Cc1noc(C)c1COC(=O)[C@@H](NC(=O)c1ccccc1Cl)C(C)C")
"inactive"
>>> group("O=C1c2ccccc2S(=O)(=O)c2cc(C(=O)N(c3ccccn3)c3ccccn3)ccc21")
"inactive"
>>> group("Cc1ccc(/C=N/NC(=O)NC2CCCCC2)o1")
"inactive"
>>> group("N=C(N)SCc1cn2ccccc2n1")
"inactive"
>>> group("COc1c(C)cc(C(=O)C2CCCN(Cc3cccc4nccnc34)C2)cc1C (configuration not stated)")
"inactive"
>>> group("CN(C)S(=O)(=O)N1CCC(CCCC2CCN(S(=O)(=O)N(C)C)CC2)CC1")
"inactive"
>>> group("Cc1cc(Br)ccc1OCCN1CCCC1")
"inactive"
>>> group("Cc1cc(Nc2ccccc2O)c2ccccc2n1")
"inactive"
>>> group("CCOC(=O)C1=NN(c2ccccc2C)C2=NC(C)=C(C(=O)OC)C(c3cccc(OC)c3)N12 (configuration not stated)")
"active"
>>> group("CCc1ccc2nc3nc(C)cc(C)c3c(N)c2c1")
"active"
>>> group("Cn1c(N2CCN(C(=O)Nc3ccc(C(F)(F)F)cc3)CC2)nc2ccccc21")
"inactive"
>>> group("Cc1nc2ccccc2n1CC(O)COc1ccccc1Cl (configuration not stated)")
"inactive"

###

test system: TRPC4 beta (transient receptor potential cation channel C4), mouse; test: potentiation of DAMGO EC20 TRPC4 response – cell-based, Fluo-4, HEK293 TRPC4beta/mu-opioid, confirmation (AID 2555); details: DAMGO EC20, Fluo-4 calcium flux, at 10 µM; hits give high values
Active and inactive are the calls of the source.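 How the source made its calls: active means primary screen hit whose calcium fluorescence ratio, in both repeats, exceeds the weak agonist control mean by 3 SD; inactive means the rest.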
RESULT TYPE: potentiation

>>> reported_result("C=CCN(CC(O)c1cccc([N+](=O)[O-])c1)C(C)CCc1ccccc1 (stereo unspecified)")
"inactive"
>>> reported_result("COc1c(C)cc(C(=O)C2CCCN(Cc3cccc4nccnc34)C2)cc1C (stereo unspecified)")
"inactive"
>>> reported_result("COC(=O)c1cc(N2CCN(C)CC2)nc2ccccc12")
"inactive"
>>> reported_result("Fc1ccccc1CNCCC(Cc1ccccc1)c1ccc2c(c1)OCO2 (stereo unspecified)")
"inactive"
>>> reported_result("COc1ccc(C(=O)NNC(=O)CN2CCC(n3nnc4cc(C)ccc43)CC2)cc1")
"28% (active)"
>>> reported_result("Cc1cccc(Cc2c(C)nc3c(C(=O)NCc4ccco4)cnn3c2C)c1")
"inactive"
>>> reported_result("CCCCC(=O)Nc1cccc2c1C(=O)N(c1ccccc1)C2=O")
"inactive"
>>> reported_result("O=C(NCCCN1CCOCC1)c1ccc(NC(=O)C2COc3ccccc3O2)cc1 (stereo unspecified)")
"inactive"
>>> reported_result("OCCNc1nc(NCc2ccccc2)c2ccccc2n1")
"inactive"
>>> reported_result("CCOC(=O)c1c(C)n(C)c2ccc(OCC(O)CNCCc3ccccc3)cc12 (stereo unspecified)")
"inactive"
>>> reported_result("O=C(CN1CCCCC1)N1c2ccccc2Oc2ccccc21")
"inactive"
